Read-out: Glutathione S-Transferase (GSTA2), GSTA2 (gene 2939)
Test: LTEA_HepaRG_GSTA2: Life Technologies and Expression Analysis (LTEA) Assay for Glutathione S-Transferase (GSTA2) using HepaRG (AID 2283497)
Conditions: mRNA level, 48 h; actives raise or lower the signal
Active and inactive are the calls of the source. Rule for the calls: active = hit-call score of the fitted dose curve at least 0.9, where 1 is the maximum; inactive = score below 0.9.
Thanks in advance; please answer with one of these: Yes for active, No for inactive

Study these solved cases before continuing.
INSERT INTO results (compound, label) VALUES
  ('CCCCCCCC(=O)O', 'No'),
  ('Cc1oc(-c2ccccc2)nc1CCOc1ccc(C[C@H](Nc2ccccc2C(=O)c2ccccc2)C(=O)O)cc1', 'Yes'),
  ('CCN(CC)CCNc1ccc(CNC=O)c2sc3ccc(OC)cc3c(=O)c12', 'Yes'),
  ('c1ccc2c(c1)Cc1ccccc1-2', 'No'),
  ('O=C(O)Cc1cc(I)c(Oc2cc(I)c(O)c(I)c2)c(I)c1', 'Yes');

Fill in: this test's call for Cc1cc(C)c(O)c(C)c1 is ___
No

Moving on to Oc1cccc(O)c1
No

Moving on to CC(C)(C)c1cccc(C(C)(C)C)c1O
No

Moving on to C#C[C@]1(O)CC[C@H]2[C@@H]3CCC4=CC(=O)CC[C@@H]4[C@H]3CC[C@@]21C
Yes

Moving on to CCC(C)(C)C1CCC(O)CC1 (configuration not stated)
No

Moving on to CC[C@H](C)[C@@H](C(=O)O)n1sc2ccccc2c1=O
No

---

Read-out: Cytochrome P450 (CYP1A2), CYP1A2 (gene 1544)
Assay: LTEA_HepaRG_CYP1A2: Life Technologies and Expression Analysis (LTEA) Assay for Cytochrome P450 (CYP1A2) using HepaRG (AID 2283479)
Settings: mRNA level, 48 h; actives raise or lower the signal
Calls of active or inactive are those of the source. The calls were made as follows: active = hit-call score of the fitted dose curve at least 0.9, where 1 is the maximum; inactive = score below 0.9.
Thanks in advance; please answer with one of these: active, inactive

Study these solved cases before continuing.
INSERT INTO results (molecule, label) VALUES
  ('CCC(=C(c1ccc(O)cc1)c1ccc(OCCN(C)C)cc1)c1ccccc1', 'inactive'),
  ('NC(=O)N(O)[C@@H]1C=C[C@H](Oc2cccc(Oc3ccc(F)cc3)c2)C1', 'active'),
  ('CCCCC(CC)COC(=O)CCCCC(=O)OCC(CC)CCCC (stereo not given)', 'inactive'),
  ('c1ccc2c(c1)ccc1ccccc12', 'inactive'),
  ('c1ccc2c(c1)Cc1ccccc1-2', 'inactive'),
  ('CCC(C)(C)C1CCC(O)CC1 (stereo not given)', 'inactive'),
  ('CCCCCCCC(=O)O', 'inactive'),
  ('CN1CCN(c2ccccc2/C=C2\SCCN(c3ccc(Cl)c(Cl)c3)C2=O)CC1', 'active');

Fill in: this test's call for O=C(O)c1ccccc1C(c1ccc(O)cc1)c1ccc(O)cc1 is ___
inactive

Moving on to OC1CCCCC1
inactive

Moving on to CC(O)CO (stereo not given)
inactive

Moving on to Nc1cccc2c(N)cccc12
active

Moving on to C[C@@H]1C[C@H]2[C@@H]3CCC4=CC(=O)C=C[C@]4(C)[C@@]3(F)[C@@H](O)C[C@]2(C)[C@@]1(O)C(=O)COP(=O)(O)O
inactive

Moving on to CC#C[C@]1(O)CC[C@H]2[C@@H]3CCC4=CC(=O)CCC4=C3[C@@H](c3ccc(N(C)C)cc3)C[C@@]21C
active

Moving on to CC[C@H](c1ccc(O)cc1)[C@@H](CC)c1ccc(O)cc1
inactive

Moving on to Cc1cc(C)c(O)c(C)c1
inactive

---

Read-out: matrix metalloproteinase-3 (MMP3), MMP3 (gene 4314)
Experiment: LTEA_HepaRG_MMP3: Life Technologies and Expression Analysis (LTEA) Assay for matrix metalloproteinase-3 (MMP3) using HepaRG (AID 2283519)
Details: mRNA level, 48 h; actives raise or lower the signal
Active and inactive are the calls of the source. Rule for the calls: active = hit-call score of the fitted dose curve at least 0.9, where 1 is the maximum; inactive = score below 0.9.
Thanks in advance; please answer with one of these: t = active, f = inactive

INSERT INTO results (compound, label) VALUES
  ('CC(=O)NC1(c2cccc(F)c2)CCN(CC[C@@]2(c3ccc(Cl)c(Cl)c3)CN(c3ccccc3)C(=O)CO2)CC1', 'f'),
  ('CCCOC(=O)c1ccc(O)cc1', 'f'),
  ('C=C(C)C(=O)OCCC(F)(F)C(F)(F)C(F)(F)C(F)(F)C(F)(F)C(F)(F)F', 'f'),
  ('Cc1oc(-c2ccccc2)nc1CCOc1ccc(C[C@H](Nc2ccccc2C(=O)c2ccccc2)C(=O)O)cc1', 't');

Fill in: this test's call for OC1CCCCC1 is ___
f

---

Test: ATG_NF_kB_CIS: Attagene CIS-FACTORIAL HepG2 Assay for human Nuclear Factor Kappa B (NF-kB) (AID 2282991)
Settings: HepG2 Attagene cis-factorial NF-kB reporter mRNA; actives raise or lower the signal
Active and inactive are the calls of the source. The calls were made as follows: active = hit-call score of the fitted dose curve at least 0.9, where 1 is the maximum; inactive = score below 0.9.
Thanks in advance; please answer with one of these: 1.0 = active, 0.0 = inactive

Study these solved cases before continuing.
INSERT INTO assay_data (compound, label) VALUES
  ('Cc1cc(CCN2CCN(c3nsc4ccccc34)CC2)cc2c1NC(=O)CC2(C)C', 0.0),
  ('O=C(/C=C/c1ccc(O)cc1)CC(=O)/C=C/c1ccc(O)cc1', 0.0),
  ('CC(C)(C)c1cccc(C(C)(C)C)c1O', 0.0),
  ('CCc1nn(C2CCCCC2)c2cc(C3(C#N)CCC(C(=O)O)CC3)ccc12 (configuration not stated)', 1.0);

Fill in: this test's call for CCCCOCCO is ___
0.0

Moving on to NCC(F)(F)C(F)(F)C(F)(F)C(F)(F)C(F)(F)C(F)(F)C(F)(F)F
0.0

Moving on to CCCCCCCCCCCCN1CCCC1=O
0.0

Moving on to CCCCCCCCOC(=O)CCCCCCCCC(=O)OCCCCCCCC
0.0

Moving on to CCCCCCCCCCCCCCCS(=O)(=O)Oc1ccccc1
0.0

Moving on to CCCOc1sc(C(=O)N2CCC(c3cc(CN)ccc3F)CC2)c(C)c1Br
0.0

Moving on to CC(C)CCCCCCOC(=O)CCCCC(=O)OCCCCCCC(C)C
0.0

Moving on to CCOC(=O)CC(O)(CC(=O)OCC)C(=O)OCC
0.0

---

Target: Cellular tumor antigen p53 (Homo sapiens) (UniProt P04637)
Sequence (P04637 whole entry, looked up): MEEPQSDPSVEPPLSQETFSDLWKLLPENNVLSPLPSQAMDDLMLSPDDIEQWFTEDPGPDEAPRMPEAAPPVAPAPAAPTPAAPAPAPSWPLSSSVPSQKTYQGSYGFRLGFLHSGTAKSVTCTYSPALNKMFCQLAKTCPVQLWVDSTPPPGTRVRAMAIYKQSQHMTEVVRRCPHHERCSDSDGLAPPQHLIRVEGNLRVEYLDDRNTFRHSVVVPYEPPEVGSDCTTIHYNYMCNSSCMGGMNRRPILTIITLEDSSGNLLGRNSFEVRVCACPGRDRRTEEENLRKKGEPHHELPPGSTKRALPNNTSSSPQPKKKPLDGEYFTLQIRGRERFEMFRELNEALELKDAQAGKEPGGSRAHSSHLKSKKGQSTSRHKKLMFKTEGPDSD
Assay: TOX21_p53_BLA_p5_ratio: Tox21 HCT-116 p53 Agonism Beta-lactamase Assay, Ratio, Phase 5 (AID 2283599)
Results filed as inconclusive are left out. Active and inactive are the calls of the source. The calls were made as follows: active = hit-call score of the fitted dose curve at least 0.9, where 1 is the maximum; inconclusive = response in the unintended direction; inactive = score below 0.9.
Thanks in advance; please answer with one of these: active, inactive

Study these solved cases before continuing.
INSERT INTO measurements (compound, label) VALUES
  ('COC(=O)CCCCC(=O)OC', 'inactive'),
  ('Nc1cccc2c(N)cccc12', 'inactive'),
  ('CC(C)(C)c1cc(C(C)(C)C)c(O)c(C(C)(C)C)c1', 'inactive'),
  ('O=C(O)Cc1cc(I)c(Oc2cc(I)c(O)c(I)c2)c(I)c1', 'active');

Fill in: this test's call for OCCC(F)(F)C(F)(F)C(F)(F)C(F)(F)C(F)(F)C(F)(F)C(F)(F)C(F)(F)F is ___
inactive

Moving on to O=c1c(-c2ccc(O)cc2)coc2cc(O)ccc12
inactive

---

Assay: TOX21_p53_BLA_p4_viability: Viability Assessment in the Tox21 HCT-116 p53 Agonism Beta-lactamase Assay, Phase 4 (AID 2283597);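 note: hits lower the luminescence signal meaning cytotoxicity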
Results filed as inconclusive are left out. Active and inactive are the calls of the source. The calls were made as follows: active = hit-call score of the fitted dose curve at least 0.9, where 1 is the maximum; inconclusive = response in the unintended direction; inactive = score below 0.9.
Thanks in advance; please answer with one of these: active, inactive

Study these solved cases before continuing.
INSERT INTO measurements (molecule, label) VALUES
  ('COCC(C)O (stereo unspecified)', 'inactive'),
  ('N#C[C@@H]1CC(F)(F)CN1C(=O)CNC1CC2CCC(C1)N2c1ncccn1 (stereo partly specified)', 'inactive'),
  ('O=C(OCCOCCOC(=O)c1ccccc1)c1ccccc1', 'inactive'),
  ('CC(C)(C)CC(C)(C)c1ccc(O)c(-n2nc3ccccc3n2)c1', 'inactive'),
  ('c1ccc2c(c1)Cc1ccccc1-2', 'inactive');

Fill in: this test's call for NC(=O)N(O)[C@@H]1C=C[C@H](Oc2cccc(Oc3ccc(F)cc3)c2)C1 is ___
active

---

Tested on: DIO2 (gene 1734)
Test: CCTE_GLTED_hDIO2: CCTE's human Deiodinase 2 (DIO2) Inhibition Assay, Great Lakes Toxicology and Ecology Division (GLTED) Lab (AID 2284050)
The source made the active and inactive calls. The calls were made as follows: active = hit-call score of the fitted dose curve at least 0.9, where 1 is the maximum; inconclusive = response in the unintended direction; inactive = score below 0.9.
Property measured: AC50

Consider the reported AC50 for these molecules:
INSERT INTO results (compound, target_desc, result) VALUES
  ('CCC(=C(c1ccc(O)cc1)c1ccc(OCCN(C)C)cc1)c1ccccc1', 'DIO2 (gene 1734)', '35.2 µM (active)'),
  ('CN1CCN(c2ccccc2/C=C2\SCCN(c3ccc(Cl)c(Cl)c3)C2=O)CC1', 'DIO2 (gene 1734)', '104 µM (active)'),
  ('CC1=C(/C=C/C(C)=C/C=C/C(C)=C/C(=O)O)C(C)(C)CCC1', 'DIO2 (gene 1734)', '60.4 µM (active)'),
  ('CCCCCCCCCCCCCC[N+](C)(C)C', 'DIO2 (gene 1734)', '24.7 µM (active)'),
  ('NC(=O)N(O)[C@@H]1C=C[C@H](Oc2cccc(Oc3ccc(F)cc3)c2)C1', 'DIO2 (gene 1734)', '36.5 µM (active)'),
  ('CCCCCCCCCCCCc1ccccc1S(=O)(=O)O', 'DIO2 (gene 1734)', '72.2 µM (active)');

Recorded AC50 for CCCCCCCCCCCCN1CCCC1=O , please?
138 µM (active)

Moving on to CC(C)(C)c1ccc(O)c(C(C)(C)C)c1
159 µM (active)
